- systemTested: p-glycoprotein (Homo sapiens, UniProt P08183)
- Construct: membrane vesicles from the multidrug resistant breast tumor cell line; endogenous in cells; host or cells: MCF-7/Adr (multidrug resistant human breast cancer cell line), membrane vesicles
- Sequence (P08183 whole entry): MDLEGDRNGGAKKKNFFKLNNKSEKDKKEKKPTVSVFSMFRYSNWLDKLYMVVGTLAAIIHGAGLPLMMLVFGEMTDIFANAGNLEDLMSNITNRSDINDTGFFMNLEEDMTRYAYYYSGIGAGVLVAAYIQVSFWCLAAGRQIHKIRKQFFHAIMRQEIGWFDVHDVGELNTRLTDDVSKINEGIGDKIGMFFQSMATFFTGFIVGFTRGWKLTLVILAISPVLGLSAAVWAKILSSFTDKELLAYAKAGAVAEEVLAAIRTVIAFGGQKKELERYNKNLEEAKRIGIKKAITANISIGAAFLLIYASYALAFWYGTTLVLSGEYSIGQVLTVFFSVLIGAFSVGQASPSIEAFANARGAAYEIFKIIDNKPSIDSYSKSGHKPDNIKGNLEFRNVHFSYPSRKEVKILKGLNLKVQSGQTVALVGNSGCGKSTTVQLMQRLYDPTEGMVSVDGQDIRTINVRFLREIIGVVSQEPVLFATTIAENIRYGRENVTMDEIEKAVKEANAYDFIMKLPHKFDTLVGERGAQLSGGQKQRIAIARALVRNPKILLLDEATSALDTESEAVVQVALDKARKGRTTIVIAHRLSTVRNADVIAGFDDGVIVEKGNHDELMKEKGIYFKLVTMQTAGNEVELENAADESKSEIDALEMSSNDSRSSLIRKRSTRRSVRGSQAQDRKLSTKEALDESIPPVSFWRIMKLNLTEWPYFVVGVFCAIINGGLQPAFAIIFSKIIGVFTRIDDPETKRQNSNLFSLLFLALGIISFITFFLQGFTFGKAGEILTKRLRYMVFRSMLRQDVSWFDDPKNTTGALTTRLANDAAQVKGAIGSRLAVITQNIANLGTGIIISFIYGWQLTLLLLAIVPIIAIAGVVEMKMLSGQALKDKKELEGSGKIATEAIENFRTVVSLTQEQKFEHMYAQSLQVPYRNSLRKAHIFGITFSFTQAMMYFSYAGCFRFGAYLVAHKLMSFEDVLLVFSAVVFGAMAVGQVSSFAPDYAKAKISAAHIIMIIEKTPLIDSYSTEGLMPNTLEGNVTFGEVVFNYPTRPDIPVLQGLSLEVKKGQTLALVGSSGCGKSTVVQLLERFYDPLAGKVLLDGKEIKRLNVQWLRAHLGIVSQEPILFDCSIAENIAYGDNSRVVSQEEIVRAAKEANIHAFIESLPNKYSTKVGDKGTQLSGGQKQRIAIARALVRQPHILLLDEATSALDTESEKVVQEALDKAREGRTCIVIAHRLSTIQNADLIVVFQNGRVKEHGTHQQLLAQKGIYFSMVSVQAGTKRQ
- experiment: in vitro
- Format: binding
- testSettings: human, mcf-7/adr membrane vesicles
recordedEndpoint: inhibition at 100 µM (%)

INSERT INTO measurements (compound, recordedendpoint, quantitativeresult) VALUES
  ('CCc1c2c(nc3ccc(O)cc13)-c1cc3c(c(=O)n1C2)COC(=O)[C@]3(O)CC [SN-38, 7-ethyl-10-hydroxy-camptothecin]', 'inhibition at 100 µM', 60);

* * *

- experiment: in vivo
- testSettings: rat, in vivo, iv, 20 mg/kg, AUC CPT-11, control, CPT-11 20 mg/kg iv, n = 4, 0-6 h
recordedEndpoint: AUC at 6 h (ng·h/mL)

INSERT INTO results (smilesrepresentation, recordedendpoint, quantitativeresult) VALUES
  ('CCc1c2c(nc3ccc(OC(=O)N4CCC(N5CCCCC5)CC4)cc13)-c1cc3c(c(=O)n1C2)COC(=O)[C@]3(O)CC', 'AUC at 6 h', 7700);

Source listed as patent US5786344A.
